Target: T1, human CD40L, membrane-bound on cells (human, UniProt P29965 1-261)
T1 sequence: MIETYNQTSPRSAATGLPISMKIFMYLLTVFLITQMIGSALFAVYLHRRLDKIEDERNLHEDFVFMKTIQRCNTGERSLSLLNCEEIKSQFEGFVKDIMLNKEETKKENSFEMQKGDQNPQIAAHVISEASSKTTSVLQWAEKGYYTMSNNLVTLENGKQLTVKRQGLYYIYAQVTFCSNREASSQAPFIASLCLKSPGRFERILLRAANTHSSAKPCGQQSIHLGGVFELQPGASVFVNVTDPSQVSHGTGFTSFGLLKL
Assay: cell-based or functional assay
Experimental Readout: CHO-hCD40L-driven Human B Cell Proliferation EC50 (nM)
Only the number, expressed in nM, is required.

2h572-608-N297Qshort Fc (Fc fusion, not shown: a dimerising Fc or GST) EVQLLESGGGLVQPGGSLRLSCAASGFTFNWELMGWARQAPGKGLEWVSGIEGPGDVTYYADSVKGRFTISRDNSKNTLYLQMNSLRAEDTAVYYCVKVGKESNSDYRGQGTLVTVSS    2
2h572-633 Fc (Fc fusion, not shown: a dimerising Fc or GST) EVQLLESGGGLVQPGGSLRLSCAASGFTFNWELMGWARQAPGKGLEWVSGIEGPGDVTYYADSVKGRFTISRDNSKNTLYLQMNSLRAEDTAVYYCVKVGKDAKSDYRGQGTLVTVSS    3
2h572-634 Fc (Fc fusion, not shown: a dimerising Fc or GST) EVQLLESGGGLVQPGGSLRLSCAASGFTFNWELMGWARQAPGKGLEWVSGIEGPGDVTYYADSVKGRFTISRDNSKNTLYLQMNSLRAEDTAVYYCVKVGKDSRSDYRGQGTLVTVSS    3.5
2h572-619-Ctshort Fc (Fc fusion, not shown: a dimerising Fc or GST) EVQLLESGGGLVQPGGSLRLSCAASGFTFNWQLMGWVRQAPGKGLEWVSGIEGPGDVTYYADSVKGRFTISRDNSKNTLYLQMNSLRAEDTAVYYCVKVGKDSRSDYRGQGTLVTVSS    2
2h572-619-N297Qshort Fc (Fc fusion, not shown: a dimerising Fc or GST) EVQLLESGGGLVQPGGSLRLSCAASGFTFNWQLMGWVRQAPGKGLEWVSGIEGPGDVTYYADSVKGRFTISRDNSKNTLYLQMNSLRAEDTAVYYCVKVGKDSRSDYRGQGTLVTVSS    1

Dear colleague, I am looking for the recorded CHO-hCD40L-driven Human B Cell Proliferation EC50 of the following binder: 2h719-202-N297Qshort Fc (Fc fusion, not shown: a dimerising Fc or GST) EVQLLESGGGLVQPGGSLRLSCAASGFTFKKYEMMWVRQAPGKGLEWVSSISSDGSFTYYADSVKGRFTISRDNSKNTLYLQMNSLRAEDTAVYYCAEPFTEFDYWGHGTLVTVSS
1.7

Fill blank: measured CHO-hCD40L-driven Human B Cell Proliferation EC50 of the binder 2h572-635 Fc (Fc fusion, not shown: a dimerising Fc or GST) EVQLLESGGGLVQPGGSLRLSCAASGFTFNWELMGWARQAPGKGLEWVSGIEGPGDVTYYADSVKGRFTISRDNSKNTLYLQMNSLRAEDTAVYYCVKVGKDSKSDYRGQGTLVTVSS is ____.
2.5

Fill blank: measured CHO-hCD40L-driven Human B Cell Proliferation EC50 of the binder 2h572-619-N297Qlong Fc (Fc fusion, not shown: a dimerising Fc or GST) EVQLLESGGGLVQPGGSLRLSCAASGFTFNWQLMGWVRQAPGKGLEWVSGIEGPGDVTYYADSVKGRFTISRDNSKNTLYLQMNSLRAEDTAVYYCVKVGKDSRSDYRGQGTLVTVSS is ____.
2

Consider the binder 2h572-633-CT-Fc SP5 (Fc fusion, not shown: a dimerising Fc or GST) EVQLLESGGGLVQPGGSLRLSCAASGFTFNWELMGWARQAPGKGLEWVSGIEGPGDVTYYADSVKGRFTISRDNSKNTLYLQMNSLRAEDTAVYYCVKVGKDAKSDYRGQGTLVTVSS and give its measured CHO-hCD40L-driven Human B Cell Proliferation EC50.
1

# CHO-hCD40L-driven Human B Cell Proliferation EC50 lookup, item 2h719-2 Fc (Fc fusion, not shown: a dimerising Fc or GST) EVQLLESGGGLVQPGGSLRLSCAASGFTFKRYEMMWVRQAPGKGLEWVSSISSDGSFTYYADSVKGRFTISRDNSKNTLYLQMNSLRAEDTAVYYCAEPFTEFDYWGHGTLVTVSS
0.7

Requested read-out: CHO-hCD40L-driven Human B Cell Proliferation EC50. Entry: 2h572-6 Fc (Fc fusion, not shown: a dimerising Fc or GST) EVQLLESGGGLVQPGGSLRLSCAASGFTFNWQLMGWVRQAPGKGLEWVSGIEGPGDVTYYADSVKGRFTISRDNSKNTLYLQMNSLRAEDTAVYYCVKVGKESNSDYRGQGTLVTVSS
3

Please give the measured CHO-hCD40L-driven Human B Cell Proliferation EC50 for this binder: 2h503-1 Fc (Fc fusion, not shown: a dimerising Fc or GST) DIQMTQSPSSLSASVGDRVTITCRASHHIQRYLSWYQQKPGKAPKLLILWGSQLQSGVPSRFSGSGSGTDFTLTISSLQPEDFATYYCGQWWAPPQTFGQGTKVEIKR
60
